- Target System: human M2 receptor (Homo sapiens, UniProt P08172)
- Sequence (P08172 1-466): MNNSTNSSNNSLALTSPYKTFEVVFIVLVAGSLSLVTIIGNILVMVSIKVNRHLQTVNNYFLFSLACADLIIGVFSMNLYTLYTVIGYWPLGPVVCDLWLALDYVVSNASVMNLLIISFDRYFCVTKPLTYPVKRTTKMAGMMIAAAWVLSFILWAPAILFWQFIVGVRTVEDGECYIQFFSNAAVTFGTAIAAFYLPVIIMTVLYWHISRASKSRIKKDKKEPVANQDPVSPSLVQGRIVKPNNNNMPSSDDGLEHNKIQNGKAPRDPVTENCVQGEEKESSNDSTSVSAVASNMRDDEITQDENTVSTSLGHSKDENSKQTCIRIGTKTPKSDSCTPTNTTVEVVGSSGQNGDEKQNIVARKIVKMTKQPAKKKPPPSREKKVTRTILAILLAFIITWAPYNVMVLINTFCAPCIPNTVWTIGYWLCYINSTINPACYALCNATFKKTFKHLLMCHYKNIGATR
- Condition: Receptor activity EC50, allosteric potency at EC20 acetylcholine; M2-GIRK1/4 reporter cells; in some cases mean of two or more determinations
Recorded Endpoint: EC50 (µM)

A: CC[C@@H](NC(=O)c1cn(-c2ccc(F)cc2F)c2nc(N3C(=O)NCC3C)ccc2c1=O)C(F)(F)F (stereo partly drawn) [Example 434]
B: O=C(NC(C(F)(F)F)C(F)(F)F)c1cn(-c2c(F)cc(F)cc2F)c2nc(N3CCNC3=O)ccc2c1=O [Example 599]
C: CC(C)C(NC(=O)c1cn(-c2c(F)cc(F)cc2F)c2nc(N3C[C@@H](O)[C@H](O)C3)ccc2c1=O)C(F)(F)F (single isomer, unassigned) [Example 554]
Rank the listed molecules by EC50, largest first. Output spec: a listing of the labels in the requested order.
A, B, C

---

- Target System: human M2 receptor (Homo sapiens)
- Condition: Receptor activity EC50, allosteric potency at EC20 acetylcholine; M2-GIRK1/4 reporter cells; in some cases mean of two or more determinations
Recorded Endpoint: EC50 (nM)

Worked examples, 8 compounds total:
INSERT INTO measurements (compound, target_system, u, observed) VALUES
  ('C[C@@H](COC(F)(F)F)NC(=O)c1cn(-c2c(F)cc(F)cc2Cl)c2nc(N3C[C@@H](O)CC3=O)ccc2c1=O [Example 421]', 'human M2 receptor (Homo sapiens)', 'nM', 48),
  ('CCC(COC(F)(F)F)NC(=O)c1cn(-c2c(F)cc(F)cc2F)c2nc(N3CCNC3=O)ccc2c1=O (racemic) [Example 611]', 'human M2 receptor (Homo sapiens)', 'nM', 17),
  ('CCC(NC(=O)c1cn(-c2c(F)cc(F)cc2F)c2nc(N3C[C@@H](O)[C@H](O)C3)ccc2c1=O)C(C)C (mixture of isomers) [Example 487]', 'human M2 receptor (Homo sapiens)', 'nM', 12),
  ('CC(C)C(NC(=O)c1cn(-c2c(F)cc(F)cc2F)c2nc(N3C[C@@H](O)[C@H](O)C3)ccc2c1=O)C(F)(F)F (single isomer, unassigned) [Example 553]', 'human M2 receptor (Homo sapiens)', 'nM', 13),
  ('CC[C@H](NC(=O)c1cn(-c2c(F)cc(F)cc2F)c2nc(N3C[C@@H](NC(C)=O)CC3=O)ccc2c1=O)C(F)(F)F [Example 517]', 'human M2 receptor (Homo sapiens)', 'nM', 85),
  ('CCC(COC(F)(F)F)NC(=O)c1cn(-c2c(F)cc(F)cc2F)c2nc(N3C[C@@H](O)[C@H](O)C3)ccc2c1=O (mixture of isomers) [Example 576]', 'human M2 receptor (Homo sapiens)', 'nM', 13),
  ('CCC(NC(=O)c1cn(-c2ccc(F)cc2F)c2nc(N3C[C@@H](O)CC3=O)ccc2c1=O)C(F)(F)C(F)(F)F (mixture of isomers) [Example 556]', 'human M2 receptor (Homo sapiens)', 'nM', 10),
  ('CC(C)(CC(F)(F)F)NC(=O)c1cn(-c2c(F)cc(F)cc2F)c2nc(N3CC(O)C4(CC4)C3)ccc2c1=O (single isomer, unassigned) [Example 570]', 'human M2 receptor (Homo sapiens)', 'nM', 56);

A: CC1CN(c2ccc3c(=O)c(C(=O)N[C@@H](C4CC4)C(F)(F)F)cn(-c4c(F)cc(F)cc4F)c3n2)C(=O)O1 (stereo in doubt) [Example 445]
B: C[C@@H]1CN(c2ccc3c(=O)c(C(=O)N[C@@H](C4CC4)C(F)(F)F)cn(-c4c(F)cc(F)cc4F)c3n2)C(=O)N1 [Example 437]
Given the listed records, identify the one among A and B with higher EC50. // output: label of the selected item
A
(A: 96 nM, B: 9 nM)

---

- Target System: human M2 receptor (Homo sapiens)
- Condition: Receptor activity EC50, allosteric potency at EC20 acetylcholine; M2-GIRK1/4 reporter cells; in some cases mean of two or more determinations
Recorded Endpoint: EC50 (µM)

INSERT INTO results (molecule, observed) VALUES
  ('O=C(N[C@@H](C1CC1)C(F)(F)F)c1cn(-c2c(F)cc(F)cc2F)c2nc(N3CC[C@@H](O)[C@H](O)C3)ccc2c1=O (single isomer, unassigned) [Example 617]', 0.096),
  ('CC(C)(NC(=O)c1cn(-c2c(F)cc(F)cc2F)c2nc(N3C[C@@H](O)[C@H](O)C3)ccc2c1=O)C(F)F [Example 634]', 0.054),
  ('CC[C@H](NC(=O)c1cn(-c2c(F)cc(F)cc2Cl)c2nc(N3C(=O)CC[C@@H]3CO)ccc2c1=O)C(F)(F)F [Example 430]', 0.061);

A: CC(C)C[C@H](NC(=O)c1cn(-c2c(F)cc(F)cc2F)c2nc(N3CCNC3=O)ccc2c1=O)C(F)(F)F [Example 543]
B: O=C(N[C@@H](C1CC1)C(F)(F)F)c1cn(-c2c(F)cc(F)cc2F)c2nc(N3CC4(COC4)C3)ccc2c1=O [Example 492]
C: CC[C@@H](NC(=O)c1cn(-c2ccc(F)cc2F)c2nc(N3C[C@@H](O)[C@@H](O)C3)ccc2c1=O)C(F)(F)F [Example 639]
Rank descending by EC50. I would appreciate it if you listed the labels in the requested order.
C, B, A

---

- Target System: human M2 receptor (Homo sapiens)
- Condition: Receptor activity EC50, M2-GIRK1/4 activation test, acetylcholine at EC20; allosteric potency; in some cases mean values from two or more determinations
Recorded Endpoint: EC50 (µM)

Example entries begin here.
INSERT INTO measurements (compound, recorded_endpoint, u, observed) VALUES
  ('CN(C)c1ccc2c(=O)c(C(=O)NC34CC5CC(C3)CC(C(F)(F)F)(C5)C4)cn(-c3ccc(F)cc3Cl)c2n1 [Example 153]', 'EC50', 'µM', 0.104),
  ('O=C(NCc1c(Cl)cccc1Cl)c1cn(-c2ccc(F)cc2F)c2nc(N3CC(O)CC3=O)ccc2c1=O (stereo not shown) [compound 183]', 'EC50', 'µM', 0.166);

a: CCC(NC(=O)c1cn(-c2ccc(F)cc2F)c2nc(N(C)CCF)ccc2c1=O)C(F)(F)F (racemic) [Example 104]
b: Cc1ccc(C(NC(=O)c2cn(-c3ccc(F)cc3F)c3nc(N(C)C)ccc3c2=O)C(F)(F)F)cc1 (racemic) [Example 141]
Of a versus b , which is the one with smaller reported EC50? Answer by quoting the chosen item's label.
a
(a: 0.028 µM, b: 0.083 µM)

---

- Target System: human M2 receptor (Homo sapiens, UniProt P08172)
- Condition: read-out: Efficiency
Recorded Emax for the following compounds
Numbers only; they are read as %.

INSERT INTO measurements (compound, u, observed) VALUES
  ('CN(C)c1ccc2c(=O)c(C(=O)NC34CC5CC(CC(C5)C3)C4)cn(-c3ccc(F)cc3F)c2n1', '%', 96.1);

Here is the next item to consider.
Quick check: Emax on human M2 receptor (Homo sapiens, UniProt P08172), item CCC(NC(=O)c1cn(-c2c(F)cc(F)cc2F)c2nc(N3C[C@@H](O)[C@H](O)C3)ccc2c1=O)C(F)(F)C(F)(F)F (mixture of isomers) [Example 522] ?
92.8

---

- Target System: human M2 receptor (Homo sapiens)
- Condition: read-out: Efficiency, boosting of the acetylcholine effect at EC20 acetylcholine concentration; M2-GIRK1/4 reporter cells
Recorded Endpoint: Emax (%)

INSERT INTO results (compound, observed) VALUES
  ('O=C(Nc1c(Cl)cccc1Cl)c1cn(-c2c(F)cc(F)cc2F)c2nc(N3C[C@@H](O)CC3=O)ccc2c1=O', 99.5),
  ('CO[C@@H]1CN(c2ccc3c(=O)c(C(=O)N[C@@H](C4CC4)C(F)(F)F)cn(-c4c(F)cc(F)cc4F)c3n2)C[C@H]1O (single isomer, unassigned)', 100),
  ('CC(C)C[C@@H](NC(=O)c1cn(-c2c(F)cc(F)cc2F)c2nc(N3CCNC3=O)ccc2c1=O)C(F)(F)F', 100);
